- Test Target: T1, human CD19 (human, UniProt P15391 20-556)
- T1 construct: also called B-cell surface antigen B4; B-cell antigen CD19
- T1 sequence: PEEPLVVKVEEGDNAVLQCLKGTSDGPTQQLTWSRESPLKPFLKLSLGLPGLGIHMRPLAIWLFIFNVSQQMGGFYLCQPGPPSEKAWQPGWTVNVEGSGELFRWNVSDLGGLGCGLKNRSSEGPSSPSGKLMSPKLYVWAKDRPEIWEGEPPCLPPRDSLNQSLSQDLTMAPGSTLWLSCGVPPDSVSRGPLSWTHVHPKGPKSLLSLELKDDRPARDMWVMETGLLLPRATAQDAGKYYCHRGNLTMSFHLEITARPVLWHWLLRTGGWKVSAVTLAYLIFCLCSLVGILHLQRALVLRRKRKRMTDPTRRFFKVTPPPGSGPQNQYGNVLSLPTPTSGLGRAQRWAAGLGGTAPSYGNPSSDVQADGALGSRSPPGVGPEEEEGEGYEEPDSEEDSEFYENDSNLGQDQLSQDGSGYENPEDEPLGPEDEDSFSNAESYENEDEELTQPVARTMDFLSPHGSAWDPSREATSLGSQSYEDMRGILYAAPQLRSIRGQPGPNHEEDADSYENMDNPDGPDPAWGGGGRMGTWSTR
- Protocol Details: binding affinity relative to the parent H1L1 mAb (Example 5); assay and format not named on the sheet
Result Type: Fold change binding (fold)
// units = fold; emit number, no label

Worked examples follow.
H1.204 / L1.160 (antibody, V domains shown, vs H1L1 (Kabat): VH D55E/K58E/S100cT; VL L27cQ/S27eV/G29A/A55N/F96I; also called 4G7 H1.204_L1.160) VH: EVQLVESGGGLVKPGGSLKLSCAASGYTFTSYVMHWVRQAPGKGLEWIGYINPYNEGTEYNEKFQGRVTISSDKSISTAYMELSSLRSEDTAMYYCARGTYYYGTRVFDYWGQGTLVTVSS VL: DIVMTQSPATLSLSPGERATLSCRSSKSLQNVNANTYLYWFQQKPGQSPQLLIYRMSNLNSGVPDRFSGSGSGTEFTLTISSLEPEDFAVYYCMQHLEYPITFGAGTKLEIK
3.46
H1.201 / L1.160 (antibody, V domains shown, vs H1L1 (Kabat): VH D55S/S100cT; VL L27cQ/S27eV/G29A/A55N/F96I; also called 4G7 H1.201_L1.160) VH: EVQLVESGGGLVKPGGSLKLSCAASGYTFTSYVMHWVRQAPGKGLEWIGYINPYNSGTKYNEKFQGRVTISSDKSISTAYMELSSLRSEDTAMYYCARGTYYYGTRVFDYWGQGTLVTVSS VL: DIVMTQSPATLSLSPGERATLSCRSSKSLQNVNANTYLYWFQQKPGQSPQLLIYRMSNLNSGVPDRFSGSGSGTEFTLTISSLEPEDFAVYYCMQHLEYPITFGAGTKLEIK
4.51

Pending binder:
Which Fold change binding reading was recorded for the binder H1.78 / L1 (antibody, V domains shown, vs H1L1 (Kabat): VH D55A; also called 4G7 H1.78_L1) VH: EVQLVESGGGLVKPGGSLKLSCAASGYTFTSYVMHWVRQAPGKGLEWIGYINPYNAGTKYNEKFQGRVTISSDKSISTAYMELSSLRSEDTAMYYCARGTYYYGSRVFDYWGQGTLVTVSS VL: DIVMTQSPATLSLSPGERATLSCRSSKSLLNSNGNTYLYWFQQKPGQSPQLLIYRMSNLASGVPDRFSGSGSGTEFTLTISSLEPEDFAVYYCMQHLEYPFTFGAGTKLEIK ?
1.14
